I'd appreciate it if you could supply log10 of IC50 values for the items below.
# EXPERIMENTAL_SYSTEM: Btk (Homo sapiens, UniProt Q06187)
# Construct: purified from insect cells as a full-length construct containing a N-terminal 6X-His tag; His6 (N); made in house; host or cells: insect cells (Method C)
# Sequence (Q06187 whole entry): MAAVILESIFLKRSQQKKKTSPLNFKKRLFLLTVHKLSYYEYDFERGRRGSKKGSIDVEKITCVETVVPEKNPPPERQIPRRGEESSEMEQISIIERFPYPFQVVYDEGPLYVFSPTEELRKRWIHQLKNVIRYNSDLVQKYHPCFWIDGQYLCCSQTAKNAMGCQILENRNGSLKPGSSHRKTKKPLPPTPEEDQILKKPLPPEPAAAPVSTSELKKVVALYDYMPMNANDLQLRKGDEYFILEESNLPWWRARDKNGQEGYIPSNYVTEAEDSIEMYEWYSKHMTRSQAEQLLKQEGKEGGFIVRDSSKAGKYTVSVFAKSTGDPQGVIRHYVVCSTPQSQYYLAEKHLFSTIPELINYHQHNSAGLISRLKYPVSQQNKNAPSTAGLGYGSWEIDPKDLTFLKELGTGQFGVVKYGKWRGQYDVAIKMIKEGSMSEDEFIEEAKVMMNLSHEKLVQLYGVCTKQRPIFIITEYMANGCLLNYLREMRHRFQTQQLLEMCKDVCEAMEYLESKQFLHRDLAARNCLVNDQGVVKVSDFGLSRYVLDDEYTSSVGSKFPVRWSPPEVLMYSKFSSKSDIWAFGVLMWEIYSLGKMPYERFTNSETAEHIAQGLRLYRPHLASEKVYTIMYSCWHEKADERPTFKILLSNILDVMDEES
# TEST: Btk in vitro inhibitory activity (one of Method A TR-FRET, Method B electrophoretic mobility shift, Method C radiometric filter binding)
# Type: biochemical
# EXPERIMENTAL_SETUP: wild-type Btk; read-out: Btk-WT IC50
# log10 transformed; quantity=IC50; unit=nM

Exercise: log10 of IC50 for C[C@H]1CC[C@@H](Nc2n[nH]c3nccc(-c4ccc(CNC(=O)c5nc(C(C)(C)C)no5)c(F)c4)c23)CN1C(=O)n1ccnc1 ?
Solution: 0.29

Exercise: log10 of IC50 for CC(C)(C)c1nc(C(=O)NCc2ccc(-c3ccnc4[nH]nc(O[C@@H]5CCN(C=O)C5)c34)cc2F)no1 ?
Solution: 0.58

Exercise: log10 of IC50 for C[C@@H](NC(=O)c1nc(C(C)(C)C)no1)c1ccc(-c2ccnc3[nH]nc(N4CCOCC4)c23)cc1 ?
Solution: -0.73

Exercise: log10 of IC50 for C=CC(=O)N[C@@H]1CC[C@H](C)N(c2n[nH]c3nccc(-c4ccc(CNC(=O)c5cc(C(C)(C)C)on5)c(F)c4)c23)C1 ?
Solution: 0.87

Exercise: log10 of IC50 for C=CC(=O)N1CC[C@@H](Nc2n[nH]c3nccc(-c4ccc(CNC(=O)c5ccc6c(c5)OCCCO6)c(F)c4)c23)C1 ?
Solution: 0.65

Exercise: log10 of IC50 for C=CC(=O)N[C@@H]1CCN(c2n[nH]c3nccc(-c4ccc(CNC(=O)c5coc(C(C)C)n5)c(F)c4)c23)C1 ?
Solution: -0.40

Exercise: log10 of IC50 for C[C@H]1CC[C@@H](Nc2n[nH]c3nccc(-c4ccc(CN5CCn6c(cc7c6CC(C)(C)C7)C5=O)c(F)c4)c23)CN1C(=O)N(C)C ?
Solution: 1.00

Exercise: log10 of IC50 for C=CC(=O)N1CC[C@@H](Nc2n[nH]c3nccc(-c4ccc(CNC(=O)c5coc(C(C)(C)C)n5)c(F)c4)c23)C1 ?
Solution: -0.77

Exercise: log10 of IC50 for C=CC(=O)N[C@@H]1CCN(c2n[nH]c3nccc(-c4ccc(CNC(=O)c5nc6ccccc6o5)c(F)c4)c23)C1 ?
Solution: 0.08

Exercise: log10 of IC50 for CC(C)(C)c1ccc(C(=O)NCc2ccc(-c3ccnc4[nH]nc(NC5CCNCC5)c34)cc2F)cc1 ?
Solution: 2.24

Exercise: log10 of IC50 for C=CC(=O)N[C@H]1CC[C@H](Nc2n[nH]c3nccc(-c4ccc(CNC(=O)c5noc(C(C)(C)C)n5)c(F)c4)c23)CC1 ?
Solution: 0.53

Exercise: log10 of IC50 for CC(C)(C)c1nc(C(=O)NCc2ccc(-c3ccnc4[nH]nc(N[C@@H]5CCNC5)c34)cc2F)no1 ?
Solution: 1.06

Exercise: log10 of IC50 for CC(C)(C)c1nc(C(=O)NCc2ccc(-c3ccnc4[nH]nc(N[C@H]5CC[C@H](O)CC5)c34)cc2F)no1 ?
Solution: 1.73

Exercise: log10 of IC50 for Cc1ccc(C(=O)NCc2ccc(-c3ccnc4[nH]nc(N[C@@H]5CCNC5)c34)cc2F)cc1 ?
Solution: 2.52

Exercise: log10 of IC50 for CC(C)(C)c1ccc2c(c1)CCN(Cc1ccc(-c3ccnc4[nH]nc(N[C@@H]5CCN(C=O)C5)c34)cc1F)C2=O ?
Solution: 1.32

Exercise: log10 of IC50 for CC(C)(C)c1nc(C(=O)NCc2ccc(-c3ccnc4[nH]nc(OC5CCNC5)c34)cc2F)no1 (stereo not shown) ?
Solution: 1.42

Exercise: log10 of IC50 for CC1(C(=O)N2CC[C@@H](Nc3n[nH]c4nccc(-c5ccc(C6(NC(=O)c7noc(C(C)(C)C)n7)CC6)cc5)c34)C2)COC1 ?
Solution: 2.40
